FYI, the data here is from the supplement of paper PMC10126150.

System: ATP;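 further: ATP exposure 15 min at 22 °C before imaging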
Assay: switch fluorescence ratio, 500 uM ATP over buffer (Cy3 cluster intensity, sum of 5 cycles each) (fold (ratio)); higher = stronger signal-on switching upon ATP binding; sequences stand for … in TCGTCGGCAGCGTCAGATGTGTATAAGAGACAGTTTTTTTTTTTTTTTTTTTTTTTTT…TC
Details: aptamer strand: ATP DNA aptamer (quencher-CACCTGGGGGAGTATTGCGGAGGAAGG + anchor), 100 nM annealed; ATP concentration: 500 uM
# reported switch fluorescence ratio; entries follow

ENTRY SEQUENCE | switch fluorescence ratio
TACGGGAATT | 1.04
AGCGAGGGGA | 1.04
TTGTTGATTA | 0.993

Could you now consider this next sequence?
switch fluorescence ratio reading for TACTGGTCCG : 1.08

====

Test system: ATP;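 further: ATP exposure 15 min at 22 °C before imaging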
Assay: switch fluorescence ratio, 500 uM ATP over buffer (Cy3 cluster intensity, sum of 5 cycles each) (fold (ratio)); higher = stronger signal-on switching upon ATP binding; sequences stand for … in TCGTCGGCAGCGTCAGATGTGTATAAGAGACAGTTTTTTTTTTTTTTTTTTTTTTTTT…TC
Conditions: aptamer strand: ATP DNA aptamer (quencher-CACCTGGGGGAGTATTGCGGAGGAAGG + anchor), 100 nM annealed; ATP concentration: 500 uM
REPORTED METRIC: switch fluorescence ratio
Number only, no unit.

ENTRY SEQUENCE | switch fluorescence ratio
CGAAAGATGT | 0.986
CGTTGCAGGG | 0.984
CGAGAGGAGG | 1.01

switch fluorescence ratio reading for ACAGAAGTCT : 1.03

switch fluorescence ratio reading for TATATAAGAT : 1

====

Test system: ATP;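 further: ATP exposure 15 min at 22 °C before imaging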
Test: switch fluorescence ratio, 500 uM ATP over buffer (Cy3 cluster intensity, sum of 5 cycles each) (fold (ratio)); higher = stronger signal-on switching upon ATP binding; sequences stand for … in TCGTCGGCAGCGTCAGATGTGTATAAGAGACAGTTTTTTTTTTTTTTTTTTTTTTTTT…TC
Conditions: aptamer strand: ATP DNA aptamer (quencher-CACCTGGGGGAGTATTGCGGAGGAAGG + anchor), 100 nM annealed; ATP concentration: 500 uM
REPORTED METRIC: switch fluorescence ratio
Number only, no unit.

ENTRY SEQUENCE | ASSAY SYSTEM | REPORTED METRIC | ENDPOINT VALUE
AGTGCGGGGC | ATP | switch fluorescence ratio | 1.07
CCGCGGCTTG | ATP | switch fluorescence ratio | 1.12
AGGGGGGAC | ATP | switch fluorescence ratio | 0.988
AATCGGGACC | ATP | switch fluorescence ratio | 0.991

switch fluorescence ratio reading for TGGATCACGG : 1.02

switch fluorescence ratio reading for TAAGCTTGGC : 1.02

switch fluorescence ratio reading for TGATTTGTTG : 0.971

switch fluorescence ratio reading for GATTTTGCGA : 0.983

switch fluorescence ratio reading for TTTGAAATAT : 1.01

switch fluorescence ratio reading for AAGAAATCTC : 1.04

switch fluorescence ratio reading for CTATGGGATT : 0.983

switch fluorescence ratio reading for AGGTTACATC : 1.02

switch fluorescence ratio reading for CGGTGTCTCA : 1.01

switch fluorescence ratio reading for TTAGGAGCGG : 1.04

switch fluorescence ratio reading for TGATGGATAG : 0.995

switch fluorescence ratio reading for GATTGGGGTT : 0.978

switch fluorescence ratio reading for TTAAGGCCAC : 1.03

switch fluorescence ratio reading for GGAACGTTCT : 0.995

switch fluorescence ratio reading for TTTTAGGTCG : 0.987
